tested on: NCI-H1793; experiment: relative viability (nuclei count vs DMSO), 5 days (fraction); higher = more cells survive; conditions: first compound 0.1581 µM
READOUT: relative viability
Give the figure only, with no unit attached.

// relative viability lookup, compound = COc1cc2nccc(Oc3ccc(NC(=O)Nc4cc(C)on4)c(Cl)c3)c2cc1OC [Tivozanib] + N=C(N)NC(=N)NCCc1ccccc1 [Phenformin] (partner 250 µM) , result: 0.309

// relative viability lookup, compound = Nc1ccn([C@@H]2O[C@H](CO)[C@@H](O)[C@@H]2O)c(=O)n1 [Cytarabine] + Cc1nc(Nc2ncc(C(=O)Nc3c(C)cccc3Cl)s2)cc(N2CCN(CCO)CC2)n1 [Dasatinib] (partner 0.075 µM) , result: 0.257

// relative viability lookup, compound = Nc1ccn([C@@H]2O[C@H](CO)[C@@H](O)[C@@H]2O)c(=O)n1 [Cytarabine] + COc1cccc2cc(-c3nc([C@H]4CC[C@H](C(=O)O)CC4)n4ncnc(N)c34)[nH]c12 [OSI-027] (partner 0.5 µM) , result: 0.198

Recorded values, source the supplement of paper PMC10307832.
